Ref: patent US9650395B2

// MIC lookup, one value per entry
- System: E. coli ELZ4251 (MDR clinical isolate)
- method: Antibacterial activity, MIC, MDR E. coli ELZ4251
- Type: cell-based, Escherichia coli
- conditionSet: Escherichia coli, E. coli ELZ4251, MDR clinical isolate; read-out: MIC ELZ4251
measure: MIC

compound: CCc1cc(C(=O)O)c(=O)[nH]c1-c1ccc(N2C[C@H]3CN(C)C[C@H]3C2)cc1.Cl [Cpd 208]
subjectOfTest: E. coli ELZ4251 (MDR clinical isolate)
measure: MIC
observedValue: 12.5 to 150 µg/mL

compound: CCc1c(-c2ccc(N3C[C@H]4CCC[C@H](N)[C@H]4C3)cc2)[nH]c(=O)c(C(=O)O)c1O.Cl [Cpd 258]
subjectOfTest: E. coli ELZ4251 (MDR clinical isolate)
measure: MIC
observedValue: 3.5 to 12.5 µg/mL

compound: CCc1cc(C(=O)O)c(=O)[nH]c1-c1ccc(N2C[C@H](CN)[C@@H](C)C2)cc1 [Cpd 216]
subjectOfTest: E. coli ELZ4251 (MDR clinical isolate)
measure: MIC
observedValue: 12.5 to 150 µg/mL

compound: CCc1c(-c2ccc(N3C[C@H]4CCC[C@H](NC)[C@H]4C3)cc2)[nH]c(=O)c(C(=O)O)c1O.Cl [Cpd 268]
subjectOfTest: E. coli ELZ4251 (MDR clinical isolate)
measure: MIC
observedValue: 3.5 to 12.5 µg/mL

compound: CCc1cc(C(=O)O)c(=O)[nH]c1-c1ccc(N2CCCC2C)cc1 (stereo not shown) [Cpd 139]
subjectOfTest: E. coli ELZ4251 (MDR clinical isolate)
measure: MIC
observedValue: 12.5 to 150 µg/mL

compound: CCc1cc(C(=O)O)c(=O)[nH]c1-c1ccc(N2CC(O)C2)cc1 [Cpd 121]
subjectOfTest: E. coli ELZ4251 (MDR clinical isolate)
measure: MIC
observedValue: 12.5 to 150 µg/mL

compound: CCc1c(-c2ccc(N3C[C@H]4CCCC[C@@]4(CN(C)C)C3)cc2)[nH]c(=O)c(C(=O)O)c1O.Cl [Cpd 266]
subjectOfTest: E. coli ELZ4251 (MDR clinical isolate)
measure: MIC
observedValue: 12.5 to 150 µg/mL

compound: CCc1cc(C(=O)O)c(=O)[nH]c1-c1ccc(N2CCC(N)C2)cc1.O=C(O)C(F)(F)F (stereo not shown) [Cpd 131]
subjectOfTest: E. coli ELZ4251 (MDR clinical isolate)
measure: MIC
observedValue: 12.5 to 150 µg/mL

compound: CC(C)c1cc(C(=O)O)c(=O)[nH]c1-c1ccc(N2CCCC2)cc1 [Cpd 163]
subjectOfTest: E. coli ELZ4251 (MDR clinical isolate)
measure: MIC
observedValue: 12.5 to 150 µg/mL

compound: CCc1cc(C(=O)O)c(=O)[nH]c1-c1ccc(N2C[C@H]3CCC[C@H](N)[C@H]3C2)cc1.O=C(O)C(F)(F)F [Cpd 203]
subjectOfTest: E. coli ELZ4251 (MDR clinical isolate)
measure: MIC
observedValue: 12.5 to 150 µg/mL

compound: CCc1cc(C(=O)O)c(=O)[nH]c1-c1ccc(N2CCC(F)(F)C2)cc1 [Cpd 144]
subjectOfTest: E. coli ELZ4251 (MDR clinical isolate)
measure: MIC
observedValue: 12.5 to 150 µg/mL

compound: CN(C)c1ccc(-c2ccc(C(=O)O)c(=O)[nH]2)cc1 [Cpd 310]
subjectOfTest: E. coli ELZ4251 (MDR clinical isolate)
measure: MIC
observedValue: 12.5 to 150 µg/mL

compound: CCc1c(-c2ccc(N3C[C@H]4CCC[C@@H](NC)[C@H]4C3)cc2)[nH]c(=O)c(C(=O)O)c1O.Cl [Cpd 296]
subjectOfTest: E. coli ELZ4251 (MDR clinical isolate)
measure: MIC
observedValue: 3.5 to 12.5 µg/mL

compound: CCc1c(-c2ccc(N3CCC(C(C)(C)N)C3)cc2)[nH]c(=O)c(C(=O)O)c1O.Cl (stereo not shown) [Cpd 279]
subjectOfTest: E. coli ELZ4251 (MDR clinical isolate)
measure: MIC
observedValue: 1 to 3.5 µg/mL

compound: CCc1cc(C(=O)O)c(=O)[nH]c1-c1ccc(N(C)CCOC2CCCCO2)cc1 (stereo not shown) [Cpd 16]
subjectOfTest: E. coli ELZ4251 (MDR clinical isolate)
measure: MIC
observedValue: 12.5 to 150 µg/mL

compound: CCc1c(-c2ccc(N3C[C@H]4CC[C@@H](N)[C@H]4C3)cc2)[nH]c(=O)c(C(=O)O)c1O.Cl [Cpd 264]
subjectOfTest: E. coli ELZ4251 (MDR clinical isolate)
measure: MIC
observedValue: 3.5 to 12.5 µg/mL
